Value source: the supplement of paper PMC7877785

- assay overview: self-splicing fitness, log relative to wild type (ln ratio); higher = more splicing; Tetrahymena group I intron in knt gene, E. coli kanamycin selection, DiMSum; sequences stand for … in CUCUCU…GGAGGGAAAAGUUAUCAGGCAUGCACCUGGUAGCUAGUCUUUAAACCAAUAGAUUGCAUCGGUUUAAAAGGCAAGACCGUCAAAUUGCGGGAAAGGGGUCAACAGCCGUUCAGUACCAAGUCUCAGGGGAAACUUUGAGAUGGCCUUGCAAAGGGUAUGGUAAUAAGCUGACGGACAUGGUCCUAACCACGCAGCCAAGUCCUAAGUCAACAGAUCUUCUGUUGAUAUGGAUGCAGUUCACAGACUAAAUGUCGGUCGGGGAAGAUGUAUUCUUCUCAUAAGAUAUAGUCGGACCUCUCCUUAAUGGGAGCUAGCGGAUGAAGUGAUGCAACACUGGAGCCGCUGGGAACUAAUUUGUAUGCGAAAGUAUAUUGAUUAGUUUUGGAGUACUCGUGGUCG;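 also: selection with 25 µg/mL kanamycin versus none on LB agar overnight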
- run parameters: 37 °C

>  <sequence input>
GUCAAGCAAUAUUACGUGUA

>  <self-splicing fitness (ln)>
-0.887

$$$$
>  <sequence input>
UUGCAGCAAUAUUACGGGGC

>  <self-splicing fitness (ln)>
-2.35

$$$$
>  <sequence input>
CACAAGCAAUAUUACGCCCG

>  <self-splicing fitness (ln)>
0.193

$$$$
>  <sequence input>
UCUUAGCAAUAUUACGCGAG

>  <self-splicing fitness (ln)>
-2.92

$$$$
>  <sequence input>
UGUGAGCAAUAUUACGCCCA

>  <self-splicing fitness (ln)>
-1.3

$$$$

----------
- assay overview: self-splicing fitness, log relative to wild type (ln ratio); higher = more splicing; Tetrahymena group I intron in knt gene, E. coli kanamycin selection, DiMSum; sequences stand for … in CUCUCU…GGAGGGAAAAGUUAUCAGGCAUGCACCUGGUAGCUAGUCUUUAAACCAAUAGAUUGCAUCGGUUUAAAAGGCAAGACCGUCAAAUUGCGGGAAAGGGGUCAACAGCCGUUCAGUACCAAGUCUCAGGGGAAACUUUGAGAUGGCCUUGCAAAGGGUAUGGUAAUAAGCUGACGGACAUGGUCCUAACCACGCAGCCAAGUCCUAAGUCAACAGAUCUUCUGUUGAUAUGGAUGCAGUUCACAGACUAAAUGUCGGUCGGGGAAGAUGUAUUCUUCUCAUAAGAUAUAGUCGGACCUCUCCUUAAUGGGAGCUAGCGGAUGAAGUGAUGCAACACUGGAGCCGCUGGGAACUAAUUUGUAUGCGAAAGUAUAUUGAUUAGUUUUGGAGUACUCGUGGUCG
- run parameters: 37 °C
Property: self-splicing fitness (ln); scope: individual sequences
parameter measured: self-splicing fitness (ln)

>  <sequence input>
UCUCAGCAAUAUUACGCAGC

>  <parameter measured>
self-splicing fitness (ln)

>  <quantitative result>
-2.32

$$$$
>  <sequence input>
AUGAAGCAAUAUUACGAGUG

>  <parameter measured>
self-splicing fitness (ln)

>  <quantitative result>
-0.514

$$$$
>  <sequence input>
GCCCAGCAAUAUUACGGACC

>  <parameter measured>
self-splicing fitness (ln)

>  <quantitative result>
-2.94

$$$$
>  <sequence input>
AGACAGCAAUAUUACGCUGG

>  <parameter measured>
self-splicing fitness (ln)

>  <quantitative result>
-3.5

$$$$
>  <sequence input>
CUCCAGCAAUAUUACGUCAC

>  <parameter measured>
self-splicing fitness (ln)

>  <quantitative result>
-2.69

$$$$
>  <sequence input>
GGCGAGCAAUAUUACGGCAU

>  <parameter measured>
self-splicing fitness (ln)

>  <quantitative result>
0.0629

$$$$
>  <sequence input>
UCUAAGCAAUAUUACGGUGA

>  <parameter measured>
self-splicing fitness (ln)

>  <quantitative result>
-0.245

$$$$
>  <sequence input>
UAACAGCAAUAUUACGCGCC

>  <parameter measured>
self-splicing fitness (ln)

>  <quantitative result>
-0.587

$$$$
>  <sequence input>
GCGAAGCAAUAUUACGUCCA

>  <parameter measured>
self-splicing fitness (ln)

>  <quantitative result>
-0.269

$$$$
>  <sequence input>
UAAGAGCAAUAUUACGUCUC

>  <parameter measured>
self-splicing fitness (ln)

>  <quantitative result>
-2.31

$$$$
>  <sequence input>
AACAAGCAAUAUUACGGUGU

>  <parameter measured>
self-splicing fitness (ln)

>  <quantitative result>
-1.45

$$$$
>  <sequence input>
CAACAGCAAUAUUACGGGAA

>  <parameter measured>
self-splicing fitness (ln)

>  <quantitative result>
-2.04

$$$$
>  <sequence input>
UUCUAGCAAUAUUACGUCAG

>  <parameter measured>
self-splicing fitness (ln)

>  <quantitative result>
-1.75

$$$$
>  <sequence input>
UCUGAGCAAUAUUACGAUGC

>  <parameter measured>
self-splicing fitness (ln)

>  <quantitative result>
-0.729

$$$$
>  <sequence input>
CAUUAGCAAUAUUACGGACU

>  <parameter measured>
self-splicing fitness (ln)

>  <quantitative result>
-1.89

$$$$
>  <sequence input>
UAAUAGCAAUAUUACGAGCG

>  <parameter measured>
self-splicing fitness (ln)

>  <quantitative result>
-0.261

$$$$
>  <sequence input>
CGUAAGCAAUAUUACGUACC

>  <parameter measured>
self-splicing fitness (ln)

>  <quantitative result>
-1.76

$$$$
>  <sequence input>
AUCUAGCAAUAUUACGAAUC

>  <parameter measured>
self-splicing fitness (ln)

>  <quantitative result>
-3.15

$$$$
>  <sequence input>
UGCCAGCAAUAUUACGACUA

>  <parameter measured>
self-splicing fitness (ln)

>  <quantitative result>
-0.0497

$$$$
>  <sequence input>
CCGGAGCAAUAUUACGUGUU

>  <parameter measured>
self-splicing fitness (ln)

>  <quantitative result>
-2.01

$$$$
>  <sequence input>
GGUGAGCAAUAUUACGAAUC

>  <parameter measured>
self-splicing fitness (ln)

>  <quantitative result>
-2.04

$$$$
>  <sequence input>
UAACAGCAAUAUUACGUAUG

>  <parameter measured>
self-splicing fitness (ln)

>  <quantitative result>
-0.164

$$$$
>  <sequence input>
UCCCAGCAAUAUUACGACGA

>  <parameter measured>
self-splicing fitness (ln)

>  <quantitative result>
0.0828

$$$$
>  <sequence input>
GUCGAGCAAUAUUACGGCGG

>  <parameter measured>
self-splicing fitness (ln)

>  <quantitative result>
-2.67

$$$$
>  <sequence input>
UGGGAGCAAUAUUACGCUAA

>  <parameter measured>
self-splicing fitness (ln)

>  <quantitative result>
-1.93

$$$$
>  <sequence input>
CGCUAGCAAUAUUACGGAAU

>  <parameter measured>
self-splicing fitness (ln)

>  <quantitative result>
-2.02

$$$$
>  <sequence input>
CCCAAGCAAUAUUACGCUCG

>  <parameter measured>
self-splicing fitness (ln)

>  <quantitative result>
-2.14

$$$$
>  <sequence input>
ACACAGCAAUAUUACGAUAC

>  <parameter measured>
self-splicing fitness (ln)

>  <quantitative result>
-2.69

$$$$
>  <sequence input>
AACGAGCAAUAUUACGUCUC

>  <parameter measured>
self-splicing fitness (ln)

>  <quantitative result>
-3.03

$$$$
>  <sequence input>
CUGGAGCAAUAUUACGUAAA

>  <parameter measured>
self-splicing fitness (ln)

>  <quantitative result>
-2.22

$$$$
>  <sequence input>
GGCGAGCAAUAUUACGUAGU

>  <parameter measured>
self-splicing fitness (ln)

>  <quantitative result>
-0.422

$$$$
>  <sequence input>
AAACAGCAAUAUUACGAACC

>  <parameter measured>
self-splicing fitness (ln)

>  <quantitative result>
-0.124

$$$$
>  <sequence input>
AGGGAGCAAUAUUACGCUAU

>  <parameter measured>
self-splicing fitness (ln)

>  <quantitative result>
-1.85

$$$$
>  <sequence input>
AGGAAGCAAUAUUACGACCA

>  <parameter measured>
self-splicing fitness (ln)

>  <quantitative result>
-0.317

$$$$
>  <sequence input>
CGAUAGCAAUAUUACGCUAA

>  <parameter measured>
self-splicing fitness (ln)

>  <quantitative result>
-0.607

$$$$
>  <sequence input>
CGAGAGCAAUAUUACGUGCG

>  <parameter measured>
self-splicing fitness (ln)

>  <quantitative result>
-1.8

$$$$
>  <sequence input>
AGUGAGCAAUAUUACGCCGC

>  <parameter measured>
self-splicing fitness (ln)

>  <quantitative result>
-0.183

$$$$
>  <sequence input>
CCAUAGCAAUAUUACGAGUA

>  <parameter measured>
self-splicing fitness (ln)

>  <quantitative result>
-2.06

$$$$
>  <sequence input>
AGUUAGCAAUAUUACGUCUU

>  <parameter measured>
self-splicing fitness (ln)

>  <quantitative result>
0.541

$$$$
>  <sequence input>
CCUGAGCAAUAUUACGAUGG

>  <parameter measured>
self-splicing fitness (ln)

>  <quantitative result>
-2.58

$$$$
>  <sequence input>
GCGCAGCAAUAUUACGAGAC

>  <parameter measured>
self-splicing fitness (ln)

>  <quantitative result>
-1.18

$$$$
>  <sequence input>
UUUCAGCAAUAUUACGGUAU

>  <parameter measured>
self-splicing fitness (ln)

>  <quantitative result>
-1.67

$$$$
>  <sequence input>
CGUGAGCAAUAUUACGUGCC

>  <parameter measured>
self-splicing fitness (ln)

>  <quantitative result>
-1.78

$$$$
>  <sequence input>
ACCGAGCAAUAUUACGGGUC

>  <parameter measured>
self-splicing fitness (ln)

>  <quantitative result>
-3.06

$$$$
>  <sequence input>
GAGAAGCAAUAUUACGACGC

>  <parameter measured>
self-splicing fitness (ln)

>  <quantitative result>
-0.292

$$$$
>  <sequence input>
UUGAAGCAAUAUUACGACGC

>  <parameter measured>
self-splicing fitness (ln)

>  <quantitative result>
0.156

$$$$
>  <sequence input>
UCACAGCAAUAUUACGGAGC

>  <parameter measured>
self-splicing fitness (ln)

>  <quantitative result>
-2.04

$$$$
>  <sequence input>
UAUCAGCAAUAUUACGUGUU

>  <parameter measured>
self-splicing fitness (ln)

>  <quantitative result>
-2.83

$$$$
>  <sequence input>
CCCGAGCAAUAUUACGCUCG

>  <parameter measured>
self-splicing fitness (ln)

>  <quantitative result>
-2.92

$$$$
>  <sequence input>
GGUUAGCAAUAUUACGAGCU

>  <parameter measured>
self-splicing fitness (ln)

>  <quantitative result>
-1.69

$$$$
>  <sequence input>
AGUAAGCAAUAUUACGCGCG

>  <parameter measured>
self-splicing fitness (ln)

>  <quantitative result>
-0.403

$$$$
>  <sequence input>
CCUGAGCAAUAUUACGUGAG

>  <parameter measured>
self-splicing fitness (ln)

>  <quantitative result>
-2.28

$$$$
>  <sequence input>
AAUGAGCAAUAUUACGCUGU

>  <parameter measured>
self-splicing fitness (ln)

>  <quantitative result>
-2.21

$$$$
>  <sequence input>
UAAGAGCAAUAUUACGACAU

>  <parameter measured>
self-splicing fitness (ln)

>  <quantitative result>
-2.82

$$$$
>  <sequence input>
AUUUAGCAAUAUUACGGAGU

>  <parameter measured>
self-splicing fitness (ln)

>  <quantitative result>
-2.29

$$$$
